Recorded values, source patent US20190010228A1.

Biological target: T1, human LRP5 domains E3-E4 (E644-Q1263 of SEQ ID NO: 42) (human, UniProt O75197 644-1263)
T1 construct: Soluble fragment made in-house; It was biotinylated for phage sorting; also called LRP5-E3/E4; LRP5E3/E4
T1 sequence: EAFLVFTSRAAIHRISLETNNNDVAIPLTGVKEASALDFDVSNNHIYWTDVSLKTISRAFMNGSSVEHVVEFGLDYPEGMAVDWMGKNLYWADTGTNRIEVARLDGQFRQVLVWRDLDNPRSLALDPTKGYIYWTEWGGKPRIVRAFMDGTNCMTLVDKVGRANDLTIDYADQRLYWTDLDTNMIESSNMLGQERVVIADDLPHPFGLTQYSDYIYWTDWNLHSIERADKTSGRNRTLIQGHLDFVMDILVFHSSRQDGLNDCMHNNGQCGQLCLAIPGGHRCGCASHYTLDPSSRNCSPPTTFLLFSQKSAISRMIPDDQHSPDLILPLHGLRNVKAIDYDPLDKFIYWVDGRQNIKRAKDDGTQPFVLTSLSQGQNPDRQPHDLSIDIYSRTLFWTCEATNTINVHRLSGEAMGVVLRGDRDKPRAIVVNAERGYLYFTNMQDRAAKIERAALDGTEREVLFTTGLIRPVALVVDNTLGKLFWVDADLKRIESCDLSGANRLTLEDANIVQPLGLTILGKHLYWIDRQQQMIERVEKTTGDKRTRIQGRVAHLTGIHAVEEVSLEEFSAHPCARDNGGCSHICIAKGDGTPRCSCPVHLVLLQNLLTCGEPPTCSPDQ
Assay: SPR, BIAcore T100, IgG captured by anti-human Fc, LRP5E3/E4 as analyte, 25 C
readout-label: pKd
In textbook form, pKd equals minus log to base ten of the concentration in mol/L.

>>> measured("YW629.42 (antibody, human IgG1, V domains shown, also called P6C.42) VH: EVQLVESGGGLVQPGGSLRLSCAASGFTFSSYAMSWVRQAPGKGLEWVGAISSSGSSTYYADSVKGRFTISRDNSKNTLYLQMNSLRAEDTAVYYCARYYRYAPYRSLGMDVWGQGTLVTVSS VL: DIQMTQSPSSLSASVGDRVTITCRASQGISSYLAWYQQKPGKAPKLLIYAASSLQSGVPSRFSGSGSGTDFTLTISSLQPEDFATYYCQQYYSYPFTFGQGTKVEIKR")
7.29

--- query ---
Exam item: Consider the binder YW629.51.61 (antibody, human IgG1, V domains shown, also called P6C.51.61; PC6.51.61) VH: EVQLVESGGGLVQPGGSLRLSCAASGFTFSSYAMHWVRQAPGKGLEWVSRISSNGGSTYYADSVKGRFTISRDNSKNTLYLQMNSLRAEDTAVYYCARWIPQSYPFASYKSGFDYWGQGTLVTVSS VL: DIQMTQSPSSLSASVGDRVTITCRASQVMGYYLAWYQQKPGKAPKLLIYDASSLESGVPSRFSGSGSGTDFTLTISSLQPEDFATYYCQQYYSYPFTFGQGTKVEIKR and give its measured pKd.
Marked response: 9.33
